assay: qHTS for Inhibitors of the Functional Ribonucleoprotein Complex (vRNP) of Lymphocytic Choriomeningitis Arenaviruses (LCMV): Viability assay - alamar blue signal for LCMV Primary Screen (AID 1347085); conditions: alamar blue viability counter-screen, LCMV vRNP screen cells; series mostly up to 57.5 µM; further: nearly all actives have a fitted effect of over 80% in size
Inconclusive results are not listed. Active and inactive are the calls of the source. The call rests on the fitted dose curve; tested in HEK293 reporter line.
Outcomes: YES (active), NO (inactive)

{"Molecule": "Cc1cc(Nc2cc(N3CCN(C)CC3)nc(C=Cc3ccccc3)n2)n[nH]1", "Answer label": "YES"}
{"Molecule": "C[C@]12CCC3C(CC[C@H]4C[C@H](O)CC[C@]34C)C1CC[C@@H]2C(=O)CO (stereo partly specified)", "Answer label": "NO"}
{"Molecule": "O=C(O)CCC1CCC(c2cc(F)ccc2F)(S(=O)(=O)c2ccc(Cl)cc2)CC1 (stereo unspecified)", "Answer label": "NO"}
{"Molecule": "Nc1ccc(Cl)cc1", "Answer label": "NO"}
{"Molecule": "C[C@@H]1O[C@H](C[N+](C)(C)C)C[C@H]1O", "Answer label": "NO"}
{"Molecule": "C#CCOC(=O)C1=CCCN(C)C1", "Answer label": "NO"}
{"Molecule": "Cc1cccc(-c2nn(C(=S)Nc3ccccc3)cc2-c2ccnc3ccccc23)n1", "Answer label": "NO"}
{"Molecule": "CCCCCCCCCCCCCC(=O)N[C@H](CO)[C@H](O)c1ccc([N+](=O)[O-])cc1", "Answer label": "NO"}
{"Molecule": "COc1c(C)cnc(Cn2cnc3c(Cl)nc(N)nc32)c1C", "Answer label": "YES"}
{"Molecule": "CS(=O)(=O)c1cccc(CNc2nc(Nc3ccc4c(c3)CCC(=O)N4)ncc2C(F)(F)F)c1", "Answer label": "NO"}
{"Molecule": "c1ccc2[nH]ccc2c1", "Answer label": "NO"}

---

assay: Cell Viability - Hek293 (AID 427); details: qHTS;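 further: cells exposed to compound for 40 hours at 37 °C before reading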
Records with an inconclusive call do not appear. Active and inactive are the calls of the source.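 Rule for the calls: active = compounds whose dose-response curve shows a full or clear partial loss of cell viability, called from curve shape rather than a numeric limit; inconclusive = weak partial curves or an effect only at the top dose; inactive = no dose-dependent loss of viability.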
Outcomes: 1.0 (active), 0.0 (inactive)

{"Compound": "Nc1ccc(Sc2ccc(N)cc2)cc1", "Answer label": 0.0}
{"Compound": "CCCCC(CC)COC(=O)c1ccccc1C(=O)OCC(CC)CCCC (configuration not stated)", "Answer label": 0.0}
{"Compound": "CCOCCOC(C)=O", "Answer label": 0.0}
{"Compound": "C=CC(=O)NCNC(=O)C=C", "Answer label": 0.0}
{"Compound": "c1cc2ccc3cccc4ccc(c1)c2c34", "Answer label": 0.0}
{"Compound": "O=S(=O)(c1ccc(Cl)cc1)c1ccc(Cl)cc1", "Answer label": 0.0}
{"Compound": "COC(C)(C)CCCC(C)C/C=C/C(C)=C/C(=O)OC(C)C (configuration not stated)", "Answer label": 0.0}
{"Compound": "CCCCOC(=O)c1ccccc1C(=O)OCc1ccccc1", "Answer label": 0.0}
{"Compound": "OCCCBr", "Answer label": 0.0}
{"Compound": "CN(C)NC(=O)CCC(=O)O", "Answer label": 0.0}
{"Compound": "CC(=O)[O][Hg][c]1ccccc1", "Answer label": 1.0}
{"Compound": "Nc1ccc(Cl)cc1N", "Answer label": 0.0}

---

test: A High-Content qHTS Against Drug Library for the Identification of Small Molecules that Inhibit DYT1 Early Onset Primary Dystonia-Associated Cell Pathology (AID 1645839); conditions: HEK293 Flp-In EGFP-delE TorsinA, punctate imaging, 48 h; series mostly up to 91.7 µM
Results filed as inconclusive are left out. Activity calls are given as the source filed them. Calls come from the whole dose curve.
Outcomes: class 1 = active, class 0 = inactive

{"Molecule": "O=C(O)COc1nc(Cl)c(Cl)cc1Cl", "Answer label": "class 0"}
{"Molecule": "Cc1cc(O)ccc1Cl", "Answer label": "class 0"}
{"Molecule": "O=[N+]([O-])c1c(Cl)c(Cl)cc(Cl)c1Cl", "Answer label": "class 0"}
{"Molecule": "CC[N+]1(CCOC(=O)C(O)(c2ccccc2)c2ccccc2)CCCCC1", "Answer label": "class 0"}
{"Molecule": "Cc1ccc(Cl)c(O)c1", "Answer label": "class 0"}
{"Molecule": "CCOP(=O)(NC(C)C)Oc1ccc(SC)c(C)c1 (stereo unspecified)", "Answer label": "class 0"}
{"Molecule": "CC(=O)[O][Hg][c]1ccccc1", "Answer label": "class 1"}
{"Molecule": "CO/C=C(/C(=O)OC)c1ccccc1Oc1cc(Oc2ccccc2C#N)ncn1", "Answer label": "class 0"}
{"Molecule": "CCCCOC(=O)c1ccccc1C(=O)OCc1ccccc1", "Answer label": "class 0"}
{"Molecule": "CCOCCOC(C)=O", "Answer label": "class 0"}
{"Molecule": "CS(=O)(=O)c1ccc(C(=O)C2C(=O)CCCC2=O)c([N+](=O)[O-])c1", "Answer label": "class 0"}
{"Molecule": "O=[N+]([O-])c1cc([N+](=O)[O-])c2ccccc2c1", "Answer label": "class 0"}
{"Molecule": "COCCOCCO", "Answer label": "class 0"}
{"Molecule": "CC(O)CN1CCN(CC(=O)[O-])CCN(CC(=O)[O-])CCN(CC(=O)[O-])CC1.[Gd+3] (stereo unspecified)", "Answer label": "class 0"}
{"Molecule": "CCC(=O)O[C@@H]1C=C2CCC3C(CCC4(C)C3CC[C@@H]4OC(=O)CC)C2CC1 (stereo partly specified)", "Answer label": "class 0"}
{"Molecule": "CC(C)(C)C(O)C(Oc1ccc(Cl)cc1)n1cncn1 (stereo unspecified)", "Answer label": "class 0"}
{"Molecule": "O=C(O)CCCOc1ccc(Cl)cc1Cl", "Answer label": "class 0"}
{"Molecule": "O=S(=O)(c1ccc(Cl)cc1)c1ccc(Cl)cc1", "Answer label": "class 0"}
{"Molecule": "CCC1(CCC(C)C)C(=O)NC(=O)NC1=O", "Answer label": "class 0"}
{"Molecule": "CC1(C)CC/C(=C/c2ccc(Cl)cc2)C1(O)Cn1cncn1 (stereo unspecified)", "Answer label": "class 0"}
{"Molecule": "C=CCC1=C(C)C(OC(=O)C2C(C=C(C)C)C2(C)C)CC1=O (stereo unspecified)", "Answer label": "class 0"}
{"Molecule": "CC(C)(C)NC[C@H](O)c1ccc(O)cc1Cl", "Answer label": "class 0"}
{"Molecule": "S=C(SSC(=S)N1CCCCC1)N1CCCCC1", "Answer label": "class 0"}
{"Molecule": "O=S(=O)(O)C(F)(F)C(F)(F)C(F)(F)C(F)(F)F", "Answer label": "class 0"}
{"Molecule": "CCCCC(CC)COC(=O)c1ccccc1C(=O)OCC(CC)CCCC (stereo unspecified)", "Answer label": "class 0"}
{"Molecule": "O=[N+]([O-])/N=C1\\NCCN1Cc1ccc(Cl)nc1", "Answer label": "class 0"}
